The measurements presented in this section are drawn from PubChem BioAssay.

protocol details: sensitizers of A549 cells to miR-34 induction, primary screen, imaging, A549 dox-inducible miR-34, nuclei and caspase counts (AID 1347080)
measurement context: A549 miR-34 inducible, Hoechst nuclei count, 48 h; measured here: total cells with miR-34 induction; stronger effect = lower value
measurement label: cell count
Respond with the number and no other words.

1) C[C@]12CCC(O)CC1=CC[C@@H]1[C@H]2CC[C@]2(C)C(=O)CC[C@@H]12 (stereo not given in full): 8270

Next, consider the following compound.
IN: Give its cell count value. Item: C[C@H](N)Cc1cnc[nH]1
OUT: 9180

---

# growth inhibition annotations
protocol details: inhibition of 3D7 malaria parasite growth – strain 3D7 (AID 2306);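 further: 0% = DMSO wells and 100% = chloroquine plus artemisinin control wells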
measurement context: P. falciparum 3D7 erythrocytic growth, LDH absorbance, 72 h; at 2 µM; stronger effect = higher value
Dear colleague, please return just the value in %, with no unit written.

1) CN(c1cc(NC(=O)c2ccccc2)ccn1)C1CCN(Cc2cccc(F)c2)CC1: 92

IN: Give its growth inhibition value. Item: Cc1cc(O)cc2c(C3CCN(CC4CCN(C(=O)/C=C/c5ccc(Cl)c(Cl)c5)CC4)CC3)c[nH]c12
OUT: 101

IN: Give its growth inhibition value. Item: CC[C@H]1CN2CC[C@@H]1C[C@H]2[C@H](O)c1cc(N2CCC(C(N)=O)CC2)nc2ccc(OC)cc12
OUT: 99

IN: Give its growth inhibition value. Item: O=[N+]([O-])c1ccc(Oc2c(Cl)cc(S(=O)(=O)N3CCC(CN4CCC(c5c[nH]c6ccccc56)CC4)CC3)cc2Cl)c(Cl)c1
OUT: 100
